Would you mind telling me the reported shrunken log2 fold change of each entry?
Test system: Escherichia coli TOP10
assayProtocol: shrunken log2 fold change of peptide-encoding DNA abundance (4.5 h post-induction vs induction); higher = less antimicrobial activity (less host growth inhibition)
measurementParameters: time post-induction: 4.5 h; library: site-saturation at positions 5, 18, 19, 20
Answers are plain numbers.

Use these answered entries as a reference point.
INSERT INTO assay_data (entrysequence, targetdesc, valuemeasured) VALUES
  ('RRIRRRPPRLPRPRPRPDYAPRP', 'Escherichia coli TOP10', 0.559),
  ('RRIRRRPPRLPRPRPRPMEDPRP', 'Escherichia coli TOP10', 0.0525),
  ('RRIRSRPPRLPRPRPRPSFVPRP', 'Escherichia coli TOP10', -0.705),
  ('RRIRVRPPRLPRPRPRPVRTPRP', 'Escherichia coli TOP10', 0.103),
  ('RRIRRRPPRLPRPRPRPTDPPRP', 'Escherichia coli TOP10', 0.246),
  ('RRIRQRPPRLPRPRPRPYMPPRP', 'Escherichia coli TOP10', -0.0463),
  ('RRIRTRPPRLPRPRPRPPDIPRP', 'Escherichia coli TOP10', -0.118),
  ('RRIRFRPPRLPRPRPRPMPFPRP', 'Escherichia coli TOP10', -0.0201);

// each sequence listed below needs its shrunken log2 fold change
1. RRIRGRPPRLPRPRPRPTAYPRP
2. RRIRIRPPRLPRPRPRPDAQPRP
3. RRIRYRPPRLPRPRPRPPVFPRP

RESULT:
1. 0.656
2. -0.0523
3. 0.0494

// each sequence listed below needs its shrunken log2 fold change
1. RRIRKRPPRLPRPRPRPTMPPRP
2. RRIRWRPPRLPRPRPRPDGSPRP
3. RRIRNRPPRLPRPRPRPAGCPRP
4. RRIRFRPPRLPRPRPRPNDVPRP
5. RRIRRRPPRLPRPRPRPQESPRP

RESULT:
1. 0.282
2. -0.0311
3. 0.00181
4. 0.0386
5. -0.131

###

System: Escherichia coli TOP10
assayProtocol: shrunken log2 fold change of peptide-encoding DNA abundance (4.5 h post-induction vs induction); higher = less antimicrobial activity (less host growth inhibition)
measurementParameters: time post-induction: 4.5 h; library: site-saturation at positions 5, 18, 19, 20
experimentalEndpoint: shrunken log2 fold change
Numbers only.

INSERT INTO results (entrysequence, targetdesc, valuemeasured) VALUES
  ('RRIRWRPPRLPRPRPRPQDHPRP', 'Escherichia coli TOP10', 0.178);

// each sequence listed below needs its shrunken log2 fold change
1. RRIRKRPPRLPRPRPRPQNFPRP
2. RRIRIRPPRLPRPRPRPMPRPRP
3. RRIRQRPPRLPRPRPRPEQLPRP
4. RRIRERPPRLPRPRPRPSHFPRP

RESULT:
[-0.214, 0.0826, -0.0643, 0.000406]

// each sequence listed below needs its shrunken log2 fold change
1. RRIRRRPPRLPRPRPRPKKMPRP
2. RRIRKRPPRLPRPRPRPMFHPRP
3. RRIRGRPPRLPRPRPRPKRHPRP
4. RRIRTRPPRLPRPRPRPLHNPRP
5. RRIRSRPPRLPRPRPRPDARPRP
6. RRIRYRPPRLPRPRPRPCTEPRP
7. RRIRERPPRLPRPRPRPILAPRP
8. RRIRSRPPRLPRPRPRPAHQPRP

RESULT:
1: 0.318; 2: -0.144; 3: 1; 4: -0.557; 5: 0.1; 6: -0.531; 7: -0.349; 8: -0.0659

// each sequence listed below needs its shrunken log2 fold change
1. RRIRHRPPRLPRPRPRPHMWPRP
2. RRIRERPPRLPRPRPRPLMFPRP
3. RRIRTRPPRLPRPRPRPRMKPRP
4. RRIRQRPPRLPRPRPRPITVPRP
5. RRIRFRPPRLPRPRPRPSFAPRP

RESULT:
1. 0.104
2. -0.32
3. 0.0156
4. -0.143
5. -0.156

// each sequence listed below needs its shrunken log2 fold change
1. RRIRWRPPRLPRPRPRPPNYPRP
2. RRIRCRPPRLPRPRPRPKAHPRP
3. RRIRGRPPRLPRPRPRPRSHPRP
4. RRIRARPPRLPRPRPRPQKIPRP
5. RRIRDRPPRLPRPRPRPYFQPRP

RESULT:
-0.0821
0.205
0.239
-0.108
-0.236

###

Test system: Escherichia coli TOP10
assayProtocol: shrunken log2 fold change of peptide-encoding DNA abundance (4.5 h post-induction vs induction); higher = less antimicrobial activity (less host growth inhibition)
measurementParameters: time post-induction: 4.5 h; library: site-saturation at positions 5, 18, 19, 20
Would you mind telling me the reported shrunken log2 fold change of each entry?
Answers are plain numbers.

Use these answered entries as a reference point.
INSERT INTO results (entrysequence, valuemeasured) VALUES
  ('RRIRKRPPRLPRPRPRPFMRPRP', 0.24),
  ('RRIRDRPPRLPRPRPRPLFLPRP', -0.13),
  ('RRIRKRPPRLPRPRPRPVWHPRP', 0.0861),
  ('RRIRYRPPRLPRPRPRPQQHPRP', -0.278);

// each sequence listed below needs its shrunken log2 fold change
1. RRIRQRPPRLPRPRPRPERSPRP
2. RRIRQRPPRLPRPRPRPEHHPRP
3. RRIRIRPPRLPRPRPRPPRCPRP
4. RRIRDRPPRLPRPRPRPRQTPRP
5. RRIRKRPPRLPRPRPRPVVLPRP
6. RRIRNRPPRLPRPRPRPWKIPRP
7. RRIRIRPPRLPRPRPRPNCEPRP
8. RRIRLRPPRLPRPRPRPFTSPRP

RESULT:
0.0688
-0.136
0.0758
0.612
-0.0253
0.089
-0.525
-0.153

// each sequence listed below needs its shrunken log2 fold change
1. RRIRMRPPRLPRPRPRPGDCPRP
2. RRIRWRPPRLPRPRPRPVQVPRP
3. RRIRQRPPRLPRPRPRPVRYPRP
4. RRIRYRPPRLPRPRPRPTMKPRP
5. RRIRERPPRLPRPRPRPNFIPRP
6. RRIRIRPPRLPRPRPRPLEDPRP

RESULT:
[0.548, 0.0298, 0.0926, -0.285, -0.442, -0.0413]

// each sequence listed below needs its shrunken log2 fold change
1. RRIRWRPPRLPRPRPRPCLTPRP
2. RRIRARPPRLPRPRPRPTEKPRP
3. RRIRCRPPRLPRPRPRPTMIPRP

RESULT:
1. -0.00541
2. 0.413
3. -0.922

// each sequence listed below needs its shrunken log2 fold change
1. RRIRDRPPRLPRPRPRPHNEPRP
2. RRIRSRPPRLPRPRPRPGTRPRP
3. RRIRHRPPRLPRPRPRPPDVPRP
4. RRIRPRPPRLPRPRPRPRVFPRP

RESULT:
1. -0.701
2. -0.0748
3. 0.113
4. 0.607

###

Tested on: Escherichia coli TOP10;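 also: peptides expressed intracellularly from a pBAD plasmid library in pooled LB shake-flask culture, induced with 0.3% L-arabinose, DNA abundance read by NGS, three biological replicates, DESeq2 with apeglm shrinkage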
assayProtocol: shrunken log2 fold change of peptide-encoding DNA abundance (4.5 h post-induction vs induction); higher = less antimicrobial activity (less host growth inhibition)
measurementParameters: time post-induction: 4.5 h; library: site-saturation at positions 5, 18, 19, 20
Would you mind telling me the reported shrunken log2 fold change of each entry?
Answers are plain numbers.

Use these answered entries as a reference point.
INSERT INTO results (entrysequence, targetdesc, valuemeasured) VALUES
  ('RRIRFRPPRLPRPRPRPDRYPRP', 'Escherichia coli TOP10', -0.0446),
  ('RRIRKRPPRLPRPRPRPCHYPRP', 'Escherichia coli TOP10', -0.117),
  ('RRIRRRPPRLPRPRPRPKGPPRP', 'Escherichia coli TOP10', 0.465),
  ('RRIRNRPPRLPRPRPRPKNFPRP', 'Escherichia coli TOP10', 0.0662);

// each sequence listed below needs its shrunken log2 fold change
1. RRIRQRPPRLPRPRPRPDSIPRP
2. RRIRTRPPRLPRPRPRPRSNPRP
3. RRIRGRPPRLPRPRPRPKLWPRP
4. RRIRQRPPRLPRPRPRPADQPRP

RESULT:
1. -0.00697
2. 0.186
3. 0.896
4. 0.012

// each sequence listed below needs its shrunken log2 fold change
1. RRIRKRPPRLPRPRPRPWYLPRP
2. RRIRFRPPRLPRPRPRPSWRPRP
3. RRIRIRPPRLPRPRPRPMTPPRP
4. RRIRHRPPRLPRPRPRPDMNPRP
5. RRIRPRPPRLPRPRPRPMMFPRP
6. RRIRRRPPRLPRPRPRPAYKPRP

RESULT:
1: 0.0253; 2: 0.167; 3: 0.0425; 4: -0.178; 5: -0.213; 6: 0.0139
